Entries and their MIC values follow.
- System: S. aureus Col8A (Meth^S)(lac^-)
- procedure.details: In vitro antibacterial evaluation, MIC by agar dilution, S. aureus Col8A
- Assay type: cell-based
- condition.notes: Staphylococcus aureus
Where a name gives a salt, the structure may show the parent alone.
Output spec: scalar in µg/mL, unitless text.

O=C(Cc1ccccc1)N[C@@H]1C(=O)N2C(C(=O)O)=C(Sc3ccnn3-c3cccc([N+](=O)[O-])c3)CS[C@H]12    0.125
O=C(Cc1ccccc1)N[C@@H]1C(=O)N2C(C(=O)O)=C(Sc3ccccc3-n3cccn3)CS[C@H]12    0.25
O=C(Cc1ccccc1)N[C@@H]1C(=O)N2C(C(=O)O)=C(Sc3ccc(-c4ccccc4)cc3Br)CS[C@H]12    0.06
N=C(N)SCc1ccccc1SC1=C(C(=O)O)N2C(=O)[C@@H](NC(=O)Cc3ccc(CN)cc3)[C@H]2SC1 [Cmpd 124, trifluoroacetic acid salt]    0.25

Note: attention shifts to another entry.
Specify MIC for Cn1cc[n+](Cc2ccc(-c3ccccc3SC3=C(C(=O)[O-])N4C(=O)[C@@H](NC(=O)Cc5ccccc5)[C@H]4SC3)s2)c1 and stop.
0.5

###

- Tested on: P. aeruginosa ATCC 27853
- procedure.details: In vitro antibacterial evaluation, MIC by agar dilution, P. aeruginosa ATCC 27853
- Assay type: cell-based
- condition.notes: Pseudomonas aeruginosa, ATCC27853, read-out: MIC
Where a name gives a salt, the structure may show the parent alone.
measured.metric: MIC

# annotated cases, reported MIC shown
NCc1ccccc1CC(=O)N[C@@H]1C(=O)N2C(C(=O)O)=C(Sc3ccnn3-c3ccccc3)CS[C@H]12    > 32 µg/mL
N=C(N)NCCSCC(=O)N[C@@H]1C(=O)N2C(C(=O)O)=C(Sc3ccccc3CSC(=N)N)CS[C@H]12 [Cmpd 137, trifluoroacetic acid salt]    > 32 µg/mL
N=C(N)SCc1ccccc1SC1=C(C(=O)O)N2C(=O)[C@@H](NC(=O)Cc3ccc(O)cc3)[C@H]2SC1    > 32 µg/mL
O=C(Cc1ccccc1)N[C@@H]1C(=O)N2C(C(=O)O)=C(Sc3ccc4ccccc4c3Br)CS[C@H]12    32 µg/mL
O=C(Cc1ccccc1)N[C@@H]1C(=O)N2C(C(=O)O)=C(Sc3ccc(-c4ccccc4)cc3Br)CS[C@H]12    > 32 µg/mL

Below: the item to evaluate.
State its MIC for this compound: O=C(Cc1ccccc1)N[C@@H]1C(=O)N2C(C(=O)O)=C(Sc3ccc(-c4ccccc4)cc3F)CS[C@H]12
> 32 µg/mL

###

MIC overview
- Tested on: S. aureus Col8A (Meth^S)(lac^-)
- procedure.details: In vitro antibacterial evaluation, MIC by agar dilution, S. aureus Col8A
- Format: cell-based
- condition.notes: Staphylococcus aureus

Completed entries (count: 5):
O=C(Cc1ccccc1)N[C@@H]1C(=O)N2C(C(=O)O)=C(Sc3ccc(Br)cc3Br)CS[C@H]12    < 0.25 µg/mL
O=C(Cc1ccccc1)N[C@@H]1C(=O)N2C(C(=O)O)=C(Sc3ccc(F)cc3)CS[C@H]12    0.03 µg/mL
N=C(NC1CC1)SCc1ccccc1SC1=C(C(=O)O)N2C(=O)[C@@H](NC(=O)Cc3ccccc3)[C@H]2SC1    0.06 µg/mL
N#CCSCC(=O)N[C@@H]1C(=O)N2C(C(=O)O)=C(Sc3ccnn3-c3ccccc3)CS[C@H]12    0.25 µg/mL
O=C(CC1CC1)N[C@@H]1C(=O)N2C(C(=O)O)=C(Sc3ccnn3-c3ccccc3)CS[C@H]12    0.25 µg/mL

Give recorded MIC. O=C(Cc1ccccc1)N[C@@H]1C(=O)N2C(C(=O)O)=C(Sc3cccc(Cl)c3Cl)CS[C@H]12
< 0.25 µg/mL

Write down MIC measured for item O=C(COc1ccc(Cl)cc1)N[C@@H]1C(=O)N2C(C(=O)O)=C(Sc3ccccc3I)CS[C@H]12
< 0.25 µg/mL

###

- Tested on: methicillinsusceptible S. aureus strain ATCC 13709
- procedure.details: In vivo antibacterial evaluation, murine model for lethal bacteremic peritonitis
- Parameters: species or system S. aureus in female Swiss-Webster mice
- condition.notes: Staphylococcus aureus, ATCC13709, sc, 72 h, two equal SC doses at challenge and 2 hours later, mice, probit, read-out: ED50
- Text: Groups of 5 female Swiss-Webster mice (Simonsen, Gilroy, Calif.) each are challenged by the intraperitoneal (IP) route with ten-fold increments of a bacterial inoculum. This permits calculation of the mean lethal dose (LD50) and the LD100. […] PD50 s are similarly determined for several pathogens. The quantitative endpoints for the new drug are then compared with those obtained with reference antibiotics. […]
Structures can show the parent of a compound that is named as a salt.
measured.metric: log10 of ED50 (log10 of the value in mg/kg)
Scale type: logarithmic (base 10). Underlying ED50 unit: mg/kg.

Solved entries:
O=C(CC1CC1)N[C@@H]1C(=O)N2C(C(=O)O)=C(Sc3ccnn3-c3ccccc3)CS[C@H]12 [Cmpd 107]    0.20
N=C(N)SCc1ccc(CC(=O)N[C@@H]2C(=O)N3C(C(=O)O)=C(Sc4ccccc4CSC(=N)N)CS[C@H]23)cc1 [Cmpd 97, trifluoroacetic acid salt]    -0.13
N#CCC(=O)N[C@@H]1C(=O)N2C(C(=O)O)=C(Sc3ccnn3-c3ccccc3)CS[C@H]12 [Cmpd 88]    -0.51

Tell me its log10 of ED50 given N=C(N)NCCSCC(=O)N[C@@H]1C(=O)N2C(C(=O)O)=C(Sc3ccccc3CSC(=N)N)CS[C@H]12 [Cmpd 137, trifluoroacetic acid salt] as the entry.
-0.12

###

- Tested on: S. aureus Col8A (Meth^S)(lac^-)
- procedure.details: In vitro antibacterial evaluation, MIC by agar dilution, S. aureus Col8A
- Type: cell-based
- condition.notes: Staphylococcus aureus
measured.metric: MIC (µg/mL)
Express it in µg/mL; write the number only.

O=C(Cc1ccccc1)N[C@@H]1C(=O)N2C(C(=O)O)=C(Sc3ccc(-c4ccccc4)cc3F)CS[C@H]12    0.06

Pending molecule:
System S. aureus Col8A (Meth^S)(lac^-). Read-out MIC. Item O=C(Cc1cccs1)N[C@@H]1C(=O)N2C(C(=O)O)=C(Sc3ccnn3-c3ccccc3)CS[C@H]12 . Report value.
0.125

###

- Test system: S. aureus Col8A (Meth^S)(lac^-)
- procedure.details: In vitro antibacterial evaluation, MIC by agar dilution, S. aureus Col8A
- Type: cell-based
- condition.notes: Staphylococcus aureus
measured.metric: MIC (µg/mL)
// note: answer is a bare numeric in µg/mL

O=C(Cc1ccco1)N[C@@H]1C(=O)N2C(C(=O)O)=C(Sc3ccnn3-c3ccccc3)CS[C@H]12    0.25
O=C(Cc1ccccc1)N[C@@H]1C(=O)N2C(C(=O)O)=C(Sc3cccc(I)c3)CS[C@H]12    0.03
N#Cc1ncccc1SC1=C(C(=O)O)N2C(=O)[C@@H](NC(=O)Cc3ccccc3)[C@H]2SC1    0.125
CC(=O)NC(=N)SCc1ccccc1SC1=C(C(=O)O)N2C(=O)[C@@H](NC(=O)Cc3ccccc3)[C@H]2SC1    0.25
O=C(Cc1ccccc1)N[C@@H]1C(=O)N2C(C(=O)O)=C(Sc3cccc(-c4ccccc4)c3)CS[C@H]12    0.125

Identify measured MIC obtained with S. aureus Col8A (Meth^S)(lac^-) for Nc1nnc(SCC(=O)N[C@@H]2C(=O)N3C(C(=O)O)=C(Sc4ccnn4-c4ccccc4)CS[C@H]23)s1 .
0.25

Enter measured MIC, system S. aureus Col8A (Meth^S)(lac^-), for the molecule shown: O=C(O)C1=C(Sc2ccnn2-c2ccccc2)CS[C@@H]2[C@H](NC(=O)C(=NO)c3ccco3)C(=O)N12
0.5

Give the observed MIC of O=C(Cc1ccccc1)N[C@@H]1C(=O)N2C(C(=O)O)=C(Sc3ccccc3Cl)CS[C@H]12 for S. aureus Col8A (Meth^S)(lac^-).
0.06

###

- Tested on: S. aureus Col8A (Meth^S)(lac^-)
- procedure.details: In vitro antibacterial evaluation, MIC by agar dilution, S. aureus Col8A
- Assay type: cell-based
- condition.notes: Staphylococcus aureus
measured.metric: MIC

Please review the entries below; each comes with its answer.
O=C(Cc1ccccc1)N[C@@H]1C(=O)N2C(C(=O)O)=C(Sc3snnc3-c3ccccc3)CS[C@H]12    < 0.25 µg/mL
N=C(N)SCc1ccccc1SC1=C(C(=O)O)N2C(=O)[C@@H](NC(=O)Cc3ccccc3)[C@H]2SC1    < 0.25 µg/mL
Cn1cc[n+](Cc2ccoc2-c2ccccc2SC2=C(C(=O)[O-])N3C(=O)[C@@H](NC(=O)Cc4ccccc4)[C@H]3SC2)c1    0.5 µg/mL
N#CCC(=O)N[C@@H]1C(=O)N2C(C(=O)O)=C(Sc3ccc(CSC(=N)N)cc3I)CS[C@H]12    < 0.25 µg/mL
COc1ccc(CC(=O)N[C@@H]2C(=O)N3C(C(=O)O)=C(Sc4ccccc4I)CS[C@H]23)cc1    < 0.25 µg/mL

Fill in MIC for record Nc1nc(-c2ccccc2)c(SC2=C(C(=O)O)N3C(=O)[C@@H](NC(=O)Cc4ccccc4)[C@H]3SC2)s1
< 0.25 µg/mL

Given the molecule CSCC(=O)N[C@@H]1C(=O)N2C(C(=O)O)=C(Sc3ccccc3CNC(=N)N)CS[C@H]12 , write its reported MIC.
≤ 0.06 µg/mL

In one line, give reported MIC of the entry CCC(CC)O/N=C(\C(=O)N[C@@H]1C(=O)N2C(C(=O)O)=C(Sc3ccnn3-c3ccccc3)CS[C@H]12)c1csc(N)n1 .
0.5 µg/mL

Check the records and state MIC for N#Cc1ccccc1SC1=C(C(=O)O)N2C(=O)[C@@H](NC(=O)/C(=N\OC3CCCC3)c3csc(N)n3)[C@H]2SC1
1 µg/mL

Specify reported MIC for the molecule shown: C=Cc1ccccc1SC1=C(C(=O)O)N2C(=O)[C@@H](NC(=O)Cc3ccccc3)[C@H]2SC1
< 0.25 µg/mL

Give me measured MIC, please, for this molecule: CNC(=N)SCc1ccccc1SC1=C(C(=O)O)N2C(=O)[C@@H](NC(=O)Cc3ccccc3)[C@H]2SC1
< 0.25 µg/mL
